- System: 931267-113-T-J1-PDC multicell spheroid viability;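 also: viability read 7 days after compound addition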
- Experiment: Anticancer human tumor 931267-113-T-J1-PDC patient-derived colon adenocarcinoma cell line growth inhibition [PI3K]
- Test Conditions: second compound 0.0316 µM; first compound 10 µM; active compounds read low
- From the text: Combinatorial screen of targeted agents with the PI3K inhibitors inavolisib, alpelisib, duvelisib, and copanlisib in multi-cell type tumor spheroids A high-throughput screen of multi-cell type tumor spheroids was designed to identify active combinations of targeted small molecules and PI3K pathway inhibitors. […] Compounds. […] If the clinical Cmax for an agent had not been determined, the highest concentration tested was 10 microM. […]
Observable: viability, T/C

Compound: Cn1ncc(Cl)c1-c1cc(C(=O)NC(CN)Cc2cccc(F)c2)sc1Cl (configuration not stated) + Cc1nc(NC(=O)N2CCCC2C(N)=O)sc1-c1ccnc(C(C)(C)C(F)(F)F)c1
Observable: viability, T/C
Value Measured: 33.6%

Compound: Cn1nccc1Nc1nccc(-c2ccn(C(CO)c3ccc(Cl)c(F)c3)c(=O)c2)n1 (configuration not stated) + Cc1nc(NC(=O)N2CCCC2C(N)=O)sc1-c1ccnc(C(C)(C)C(F)(F)F)c1
Observable: viability, T/C
Value Measured: 37.3%

Compound: CNC(=O)c1ccc(N2C(=S)N(c3ccc(C#N)c(C(F)(F)F)c3)C(=O)C2(C)C)cc1F + Cc1nc(NC(=O)N2CCCC2C(N)=O)sc1-c1ccnc(C(C)(C)C(F)(F)F)c1
Observable: viability, T/C
Value Measured: 93.5%

Compound: CC1(C)CCC(Nc2ncc(C(F)(F)F)c(-c3c[nH]c4c(P(C)(C)=O)c(C#N)ccc34)n2)CN1 (configuration not stated) + COc1c(OCCCN2CCOCC2)ccc2c3n(c(=NC(=O)c4cnc(N)nc4)nc12)CCN3
Observable: viability, T/C
Value Measured: 55.2%

Compound: C[C@@H](NC(=O)c1ncnc(N)c1Cl)c1ncc(C(=O)Nc2cc(C(F)(F)F)c(Cl)cn2)s1 + CC(Nc1ccc2c(c1)OCCn1cc(N3C(=O)OCC3C(F)F)nc1-2)C(N)=O
Observable: viability, T/C
Value Measured: 63.6%

Compound: CNC(=O)c1ccc(N2C(=S)N(c3ccc(C#N)c(C(F)(F)F)c3)C(=O)C2(C)C)cc1F + COc1c(OCCCN2CCOCC2)ccc2c3n(c(=NC(=O)c4cnc(N)nc4)nc12)CCN3
Observable: viability, T/C
Value Measured: 74.4%

Data request, read-out viability, T/C, for C=CC(=O)N1CCN(c2nc(=O)n(-c3c(C)ccnc3C(C)C)c3nc(-c4c(O)cccc4F)c(F)cc23)C(C)C1 (configuration not stated) + CC(Nc1ncnc2nc[nH]c12)c1cc2cccc(Cl)c2c(=O)n1-c1ccccc1
107%

// provenance: PubChem BioAssay AID1963970
